Target: T1, hPRLR.mFc (soluble dimeric human PRLR) (human)
T1 construct: dimeric PRLR construct
T1 chain: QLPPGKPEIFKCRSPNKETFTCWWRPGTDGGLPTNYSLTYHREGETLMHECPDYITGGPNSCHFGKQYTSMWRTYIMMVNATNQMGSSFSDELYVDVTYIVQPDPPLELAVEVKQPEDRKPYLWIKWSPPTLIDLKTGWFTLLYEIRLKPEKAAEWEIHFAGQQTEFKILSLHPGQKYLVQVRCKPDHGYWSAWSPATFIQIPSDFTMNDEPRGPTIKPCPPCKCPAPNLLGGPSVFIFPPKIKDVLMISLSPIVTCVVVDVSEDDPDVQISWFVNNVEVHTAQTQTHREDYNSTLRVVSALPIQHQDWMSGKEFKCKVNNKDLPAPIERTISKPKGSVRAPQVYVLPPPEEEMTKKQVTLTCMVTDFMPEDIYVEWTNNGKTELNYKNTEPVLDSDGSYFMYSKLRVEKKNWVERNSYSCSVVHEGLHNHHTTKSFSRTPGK
Test: SPR Biacore, 25 C, mAb capture
// returns Not fulfilled unless Kd is strictly below 0.07 nM, in which case Fulfilled

binder	assignedLabel
H1H6782P (antibody, human IgG1, V domains shown, Human IgG1 Fc (H1H)) VH: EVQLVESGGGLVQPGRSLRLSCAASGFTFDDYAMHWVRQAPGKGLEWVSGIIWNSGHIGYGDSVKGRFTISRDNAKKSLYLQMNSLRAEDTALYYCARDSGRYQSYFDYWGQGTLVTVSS VL: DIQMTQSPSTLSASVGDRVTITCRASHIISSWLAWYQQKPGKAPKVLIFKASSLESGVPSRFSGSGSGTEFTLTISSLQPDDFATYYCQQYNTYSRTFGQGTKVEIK	Not fulfilled
H1H6966N (antibody, human IgG1, V domains shown, Tested with human IgG1 Fc (H1H); also called H2M6966N) VH: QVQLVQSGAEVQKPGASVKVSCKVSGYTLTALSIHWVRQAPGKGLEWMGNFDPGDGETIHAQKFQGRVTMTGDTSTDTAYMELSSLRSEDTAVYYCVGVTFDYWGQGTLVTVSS VL: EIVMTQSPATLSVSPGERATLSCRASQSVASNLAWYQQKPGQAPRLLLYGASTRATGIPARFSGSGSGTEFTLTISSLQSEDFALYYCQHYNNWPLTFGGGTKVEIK	Fulfilled
H1H6762P (antibody, human IgG1, V domains shown, Human IgG1 Fc (H1H)) VH: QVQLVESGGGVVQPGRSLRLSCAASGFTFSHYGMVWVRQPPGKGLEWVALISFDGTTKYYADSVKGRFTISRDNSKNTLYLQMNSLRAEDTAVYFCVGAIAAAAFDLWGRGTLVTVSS VL: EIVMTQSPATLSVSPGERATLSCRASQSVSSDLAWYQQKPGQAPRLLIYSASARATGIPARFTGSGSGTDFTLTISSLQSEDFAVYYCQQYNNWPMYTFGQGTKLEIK	Not fulfilled
H1H6781P (antibody, human IgG1, V domains shown, Human IgG1 Fc (H1H)) VH: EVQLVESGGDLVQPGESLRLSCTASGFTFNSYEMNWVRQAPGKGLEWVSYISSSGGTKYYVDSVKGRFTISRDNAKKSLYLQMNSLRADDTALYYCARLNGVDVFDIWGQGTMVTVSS VL: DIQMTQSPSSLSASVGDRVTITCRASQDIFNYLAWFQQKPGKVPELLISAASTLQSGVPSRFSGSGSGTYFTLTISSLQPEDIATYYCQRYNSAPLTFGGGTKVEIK	Not fulfilled

In the following, a different binder is considered.
Dear colleague, could you confirm whether Kd of H1H6795P (antibody, human IgG1, V domains shown, Human IgG1 Fc (H1H)) VH: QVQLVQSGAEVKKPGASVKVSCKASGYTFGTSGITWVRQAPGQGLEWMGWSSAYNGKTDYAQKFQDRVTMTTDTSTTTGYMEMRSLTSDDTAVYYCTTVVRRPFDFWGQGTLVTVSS VL: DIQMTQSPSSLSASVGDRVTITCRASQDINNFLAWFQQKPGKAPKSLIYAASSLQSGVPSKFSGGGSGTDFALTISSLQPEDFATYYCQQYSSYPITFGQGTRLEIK falls below 0.07 nM? Thanks. Fulfilled

Value source: patent US20180185504A1
